# assay-system: T1, Roquin-1 zinc finger (Znf, CCCH) (UniProt Q4VGL6 411-454)
# T1 chain: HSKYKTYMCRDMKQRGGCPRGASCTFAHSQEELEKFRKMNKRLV
# measurement-description: ITC; Zn2+; n=0.5; ITC at room temperature, RNA titrated into 10-40 uM protein; buffer 20 mM Tris pH 7.0, 150 mM NaCl, 25 uM ZnCl2, 2 mM TCEP, 0.02% azide (stated for Znf); NMR HSQC 50 uM protein, RT, 10% D2O
# condition-set: protein: recombinant; tags: His6-GST removed by TEV; chain copies: 2; single-stranded, no imino signals
metric-name: Kd
Hey, just the number and the unit after it is fine.

Which measured Kd value corresponds to UUUUAACAUUAUUUU (ssRNA) [LBE (Nfkbiz 3'-UTR 15-mer)] ?
26.3 µM

Data origin: paper PMC6145892
